System: MS2 coat protein
Protocol Description: apparent KD of MS2 coat protein, switch OFF state (with FMN for OFF switches, without FMN for ON switches); designed switch direction (-1 OFF switch, 1 ON switch): 1; higher = weaker reporter binding
Conditions: FMN input: 0 or 200 uM; Eterna round: R93 (includes R88 designs)
Readout Label: apparent KD of MS2 coat protein (nM)
Give the value in nM but do not write nM after it.

Query block: Fill blank: measured apparent KD of MS2 coat protein of the sequence GAAAAACAUGAGGAUCACCCAUGUAGAAAUAUGGGAGGAUAUACAAACUCGAAAGACAAAGUAGAAGGCCUAAAAG [Garnet 24] is ____.
Result block: 133

Query block: Requested field: apparent KD of MS2 coat protein. Item: UAAAAACAUGAGGAUCACCCAUGUAAGAUAAACACAGGAUAUGCGAAAAGAAAGAAAGAAGCAGAAGGGUGAAAAU [Mat - Same State 1 - Tesla mod - 43]
Result block: 41.6

Query block: Fill blank: measured apparent KD of MS2 coat protein of the sequence GAAAAACAUGAGGAUCACCCAUGUCGAGAGAGACGAGGAUAUCUGAAUCGAUUAGAUUACGGAGAAGGCGUGAAAG [Mat - Same State 1 - Hyphema mod - D96] is ____.
Result block: 25.8

Query block: Requested field: apparent KD of MS2 coat protein. Item: ACCCGCAGCCGUCAGGAUAUGUUCGCGUCAACAUGAGGAUCACCCAUGUGUGACAAGAAGUACACGCAGAAGGGAUCAAUGCGGG [Bienri]
Result block: 16.4

Query block: Param item = AAAAAACAUGAGGAUCACCCAUGUGCAAAAUUCGCAGGAUAUUUCUCAAUUAAAUGAGAGGAAGAAGGGUGACAAA [Nob's Hobby 28 - Jieux - Same State 1] ; retrieve measured apparent KD of MS2 coat protein.
Result block: 55.3

Query block: For the sequence GAAAAACAUGAGGAUCACCCAUGUGAAAACUUGGGAGGAUAUACAAAGACGAAAGUCGAAGUAGAAGGCCUAAAAG [Same State 1.4k (Mat - Mod of Eli - )] , what apparent KD of MS2 coat protein is on record?
Result block: 106

Query block: What value of measured apparent KD of MS2 coat protein is listed for AAAUAAAGGAUUAAGGAUAUAUCACAUGAAACAUGAGGAUCACCCAUGUAAUAAUAUAAAGGGUGAUAGAAGGUAGUUUAUAAAUA [High Roller2] ?
Result block: 242

Query block: Would you kindly share the measured apparent KD of MS2 coat protein for UAAAUACAUGAGGAUCACCCAUGUCAAGAGUAUUAAGGAUAUGAACCAGGGAACUGGCAGUCAGAAGGUGAGACUC [Ququeddi] ?
Result block: 65.2

Query block: Look up apparent KD of MS2 coat protein for this sequence: AAGAAAGAAACAUAGGAUAUCAAGAAUAUAACAUGAGGAUCACCCAUGUAAAUACGAAAGUAUAAUGAGAAGGAUGGAUGAUCUUC [Mat - Mod of Meechl]
Result block: 34.5

Query block: What value of apparent KD of MS2 coat protein has been recorded for this entry: AAACCACAUGAGGAUCACCCAUGUAAAAAUAUGGAAGGAUAUGCGAAAAGAAACAAAGAAGCAGAAGGUCUAAAAA [75%, Ex sub1, 20]
Result block: 27.7

Query block: // returns reported apparent KD of MS2 coat protein for input UAACUACAUGAGGAUCACCCAUGUCUCCAGGGUCAAGGAUAUGGGCGUAGACAAACUACACCAGAAGGUGAUCCAA [Rireenon]
Result block: 307

Query block: Sample GAAAAACAUGAGGAUCACCCAUGUGAUAACAUGGGAGGAUAUACAUGGACGAUAGUCAAAGUAGAAGGCCUAAAAG [Garnet 62] — what was its apparent KD of MS2 coat protein?
Result block: 32.1
